- Tested on: U2OS
- PROTOCOL_SUMMARY: cell viability relative to DMSO; higher = less toxic
- CONDITION_LABEL: 72 h; 100 nM
Entries and their cell viability values follow.
METRIC_NAME: cell viability (%)

{"COMPOUND": "CN(C)C(=O)C(=O)c1cn(C)c2cc(Cl)c(C(=O)N3CCC(Cc4ccc(F)cc4)CC3)cc12 [SX-011]", "SYSTEM": "U2OS", "RESULT": 97.1}
{"COMPOUND": "NC(=O)CN1Cc2ccccc2OC1=O [caroxazone]", "SYSTEM": "U2OS", "RESULT": 101}
{"COMPOUND": "O=S1(=O)c2cccc3cccc(c23)N1CCCN1CCN(c2ccc(F)cc2)CC1 [fananserin]", "SYSTEM": "U2OS", "RESULT": 100}
{"COMPOUND": "c1coc(-c2nnc3sc(C4CCCCC4)nn23)c1 [cardionogen-1]", "SYSTEM": "U2OS", "RESULT": 95.9}
{"COMPOUND": "N[C@@H](C(=O)N[C@@H]1C(=O)N2C(C(=O)O)=C(Cl)CC[C@H]12)c1ccccc1 [loracarbef]", "SYSTEM": "U2OS", "RESULT": 95.7}
{"COMPOUND": "COc1ccc2c(OCc3nnc4ccc(-c5ccccc5)nn34)ccnc2c1 [AMG-208]", "SYSTEM": "U2OS", "RESULT": 102}
{"COMPOUND": "C=CCN1CCN(c2nc3ccccc3nc2C#N)CC1 [3-AQC]", "SYSTEM": "U2OS", "RESULT": 101}
{"COMPOUND": "NC(N)=O [urea]", "SYSTEM": "U2OS", "RESULT": 98.6}
{"COMPOUND": "CC(C)NCC(O)c1ccccc1Cl (centres undefined) [clorprenaline]", "SYSTEM": "U2OS", "RESULT": 95.6}
{"COMPOUND": "CS(=O)(=O)Nc1ccc2oc3c(OC(F)F)ccc(C(=O)Nc4c(Cl)cncc4Cl)c3c2c1 [oglemilast]", "SYSTEM": "U2OS", "RESULT": 97}
{"COMPOUND": "CC(C)CCNC(=O)[C@H](CC(C)C)NC(=O)[C@H]1O[C@@H]1C(=O)O [loxistatin-acid]", "SYSTEM": "U2OS", "RESULT": 101}
{"COMPOUND": "CC[C@@H]([C@H](C)O)n1ncn(-c2ccc(N3CCN(c4ccc(OC[C@@H]5CO[C@@](Cn6cncn6)(c6ccc(F)cc6F)C5)cc4)CC3)cc2)c1=O [posaconazole]", "SYSTEM": "U2OS", "RESULT": 93.7}
{"COMPOUND": "C[C@H](Nc1ncnc2[nH]cnc12)c1nc2ccc(F)cc2c(=O)n1-c1ccccc1 [acalisib]", "SYSTEM": "U2OS", "RESULT": 106}
{"COMPOUND": "Cc1ccc(N2CCN(CC[C@H]3NC(=O)c4ccccc43)CC2)cc1C", "SYSTEM": "U2OS", "RESULT": 98.9}
{"COMPOUND": "O=C(Nc1ccccc1C(=O)NC1CCCCNC1=O)c1cc2ccccc2s1 (centres undefined) [ANA-12]", "SYSTEM": "U2OS", "RESULT": 91.5}
{"COMPOUND": "c1ccc(-c2ccc(C(c3ccccc3)n3ccnc3)cc2)cc1 (centres undefined) [bifonazole]", "SYSTEM": "U2OS", "RESULT": 97.2}
{"COMPOUND": "Cc1cc(CCC[C@H](CC(=O)NO)C(=O)N[C@H](C(=O)N[C@H](C)c2ccccc2)C(C)(C)C)ccc1-c1ccccc1", "SYSTEM": "U2OS", "RESULT": 97.3}
{"COMPOUND": "CCn1cc(C(=O)O)c(=O)c2ccc(C)nc21 [nalidixic-acid]", "SYSTEM": "U2OS", "RESULT": 100}
{"COMPOUND": "CC(C)=CCC[C@]1(C)C=Cc2c(O)c3c(c(CC=C(C)C)c2O1)O[C@]12C(=C[C@@H]4C[C@H]1C(C)(C)O[C@@]2(C/C=C(/C)C(=O)O)C4=O)C3=O [gambogic-acid]", "SYSTEM": "U2OS", "RESULT": 94}
{"COMPOUND": "CCCCCCCCc1ccc(CCC(N)(CO)CO)cc1 [fingolimod]", "SYSTEM": "U2OS", "RESULT": 102}
{"COMPOUND": "CCCCC/C=C\\C/C=C\\C/C=C\\C/C=C\\CCCC(=O)Nc1ccc(O)cc1 [AM-404]", "SYSTEM": "U2OS", "RESULT": 100}
{"COMPOUND": "CC1C(=O)OC2C(O)C34C5CC(C(C)(C)C)C36C(OC(=O)C6O)OC4(C(=O)O5)C12O (centres undefined) [ginkgolide-B]", "SYSTEM": "U2OS", "RESULT": 106}
{"COMPOUND": "O=C(/C=C/c1ccc(O)cc1)c1ccc(O)cc1O [isoliquiritigenin]", "SYSTEM": "U2OS", "RESULT": 103}
{"COMPOUND": "CC(C)(C)CCN1C[C@@H]2[C@@H](CNC(=O)c3cc(Cl)cc(Cl)c3)[C@@H]2C1 [ML218]", "SYSTEM": "U2OS", "RESULT": 96.8}
{"COMPOUND": "NC(=O)c1ncn([C@@H]2O[C@H](CO)[C@@H](O)[C@H]2O)n1 [ribavirin]", "SYSTEM": "U2OS", "RESULT": 99.5}
{"COMPOUND": "COc1cc([C@@H]2c3cc4c(cc3[C@@H](O[C@@H]3O[C@@H]5CO[C@@H](C)O[C@H]5[C@H](O)[C@H]3O)[C@H]3COC(=O)[C@H]23)OCO4)cc(OC)c1O [etoposide]", "SYSTEM": "U2OS", "RESULT": 99.9}
{"COMPOUND": "CC(=O)c1c(C)c2cnc(Nc3ccc(N4CCNCC4)cn3)nc2n(C2CCCC2)c1=O [palbociclib]", "SYSTEM": "U2OS", "RESULT": 98.8}
{"COMPOUND": "Cc1[nH]c(/C=C2\\C(=O)Nc3ccc(S(=O)(=O)Cc4c(Cl)cccc4Cl)cc32)c(C)c1C(=O)N1CCC[C@@H]1CN1CCCC1", "SYSTEM": "U2OS", "RESULT": 95.7}
{"COMPOUND": "N[C@H]1CC[C@H](N[C@@H]2C[C@H]2c2ccccc2)CC1 [ORY-1001]", "SYSTEM": "U2OS", "RESULT": 97.4}
{"COMPOUND": "CCOc1cc(N2CCC(O)CC2)ccc1Nc1ncc2c(n1)N(C)c1ccccc1C(=O)N2C [XMD8-92]", "SYSTEM": "U2OS", "RESULT": 93.6}
{"COMPOUND": "CC(C)c1ccc(C(=O)N=C(N)N)cc1S(C)(=O)=O [cariporide]", "SYSTEM": "U2OS", "RESULT": 100}
{"COMPOUND": "CC1(C)CCC(C)(C)c2cc(Cn3cccn3)c(/C=C/c3ccc(C(=O)O)cc3)cc21 [palovarotene]", "SYSTEM": "U2OS", "RESULT": 102}
{"COMPOUND": "O=C(c1ccc(/C=C/c2n[nH]c3ccccc23)cc1)N1CCNCC1 [KW-2449]", "SYSTEM": "U2OS", "RESULT": 101}
{"COMPOUND": "O=C(O)[C@@H](S)[C@@H](S)C(=O)O [dimercaptosuccinic-acid]", "SYSTEM": "U2OS", "RESULT": 101}
